# MEASUREMENT_PROTOCOL: Volume of distribution at steady state in rat at 2 mg/kg, iv and 5 mg/kg, po
# Assay type: ADME, organism-based
# RUN_CONDITIONS: in vivo, read-out: Vdss
QUANTITY_NAME: Vd (L/kg)

1) CC(C)(C)CN1CCC(c2ccccc2Oc2ncccc2NC(=O)Nc2ccc(OC(F)(F)F)cc2)CC1 14

====

# MEASUREMENT_PROTOCOL: Oral bioavailability in rat at 5 mg/kg
# Assay type: ADME, organism-based
# RUN_CONDITIONS: in vivo
QUANTITY_NAME: bioavailability (%)

1. CC(C)(C)CN1CCC(c2ccccc2Oc2ncccc2NC(=O)Nc2ccc(OC(F)(F)F)cc2)CC1 89
